Test system: U251 human glioblastoma cell line
protocol_details: in vitro FM-HCR assay of MGMT activity (mPlum O^6MeG reporter plasmid)
Format: cell-based
condition_description: DMSO condition; relative to wild-type MGMT in same condition
quantity_kind: MGMT activity (% of WT) DMSO

Worked examples follow.
L33W: MGMT polypeptide with mutation L33W (protein) MDKDCEMKRTTLDSPLGKLELSGCEQGLHEIKWLGKGTSAADAVEVPAPAAVLGGPEPLMQCTAWLNAYFHQPEAIEEFPVPALHHPVFQQESFTRQVLWKLLKVVKFGEVISYQQLAALAGNPKAARAVGGAMRGNPVPILIPCHRVVCSSGAVGNYSGGLAVKEWLLAHEGHRLGKPGLGGSSGLAGAWLKGAGATSGSPPAGRN: 129.1 % of WT
P140I: MGMT polypeptide with mutation P140I (protein) MDKDCEMKRTTLDSPLGKLELSGCEQGLHEIKLLGKGTSAADAVEVPAPAAVLGGPEPLMQCTAWLNAYFHQPEAIEEFPVPALHHPVFQQESFTRQVLWKLLKVVKFGEVISYQQLAALAGNPKAARAVGGAMRGNPVIILIPCHRVVCSSGAVGNYSGGLAVKEWLLAHEGHRLGKPGLGGSSGLAGAWLKGAGATSGSPPAGRN: 126.1 % of WT
L33P: MGMT polypeptide with mutation L33P (protein) MDKDCEMKRTTLDSPLGKLELSGCEQGLHEIKPLGKGTSAADAVEVPAPAAVLGGPEPLMQCTAWLNAYFHQPEAIEEFPVPALHHPVFQQESFTRQVLWKLLKVVKFGEVISYQQLAALAGNPKAARAVGGAMRGNPVPILIPCHRVVCSSGAVGNYSGGLAVKEWLLAHEGHRLGKPGLGGSSGLAGAWLKGAGATSGSPPAGRN: 150.0 % of WT
L33Y: MGMT polypeptide with mutation L33Y (protein) MDKDCEMKRTTLDSPLGKLELSGCEQGLHEIKYLGKGTSAADAVEVPAPAAVLGGPEPLMQCTAWLNAYFHQPEAIEEFPVPALHHPVFQQESFTRQVLWKLLKVVKFGEVISYQQLAALAGNPKAARAVGGAMRGNPVPILIPCHRVVCSSGAVGNYSGGLAVKEWLLAHEGHRLGKPGLGGSSGLAGAWLKGAGATSGSPPAGRN: 108.8 % of WT

In the following, a different molecule is considered.
Item under review: S159Y: MGMT polypeptide with mutation S159Y (protein) MDKDCEMKRTTLDSPLGKLELSGCEQGLHEIKLLGKGTSAADAVEVPAPAAVLGGPEPLMQCTAWLNAYFHQPEAIEEFPVPALHHPVFQQESFTRQVLWKLLKVVKFGEVISYQQLAALAGNPKAARAVGGAMRGNPVPILIPCHRVVCSSGAVGNYYGGLAVKEWLLAHEGHRLGKPGLGGSSGLAGAWLKGAGATSGSPPAGRN . Reported MGMT activity (% of WT) DMSO?
71.2 % of WT
